System tested: T1, human CD137-Fc (human, biotin-labeled)
T1 construct: if 90 already holds the Fc, drop the second piece; also called biotin-labeled human CD137 fused to human IgG1 Fc fragment; biotin-human CD137-Fc; not shown: human IgG1 Fc fragment
T1 sequence (chain, as listed by the source): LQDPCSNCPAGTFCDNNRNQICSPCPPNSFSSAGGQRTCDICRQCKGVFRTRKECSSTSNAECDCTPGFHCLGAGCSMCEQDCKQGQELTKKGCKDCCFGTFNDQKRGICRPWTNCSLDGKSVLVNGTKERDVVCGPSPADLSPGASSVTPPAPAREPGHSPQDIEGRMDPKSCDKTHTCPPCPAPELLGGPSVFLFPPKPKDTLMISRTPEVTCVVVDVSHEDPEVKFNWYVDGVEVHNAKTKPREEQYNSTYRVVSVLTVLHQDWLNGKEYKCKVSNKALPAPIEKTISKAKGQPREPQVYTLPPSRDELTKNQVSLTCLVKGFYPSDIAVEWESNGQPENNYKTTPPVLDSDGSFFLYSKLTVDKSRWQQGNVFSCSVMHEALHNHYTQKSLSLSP
Method: bead ELISA on biotin-human CD137-Fc, 0 pmol free CD3e peptide
Measured endpoint: ELISA signal
Give only the figure.

>  <Binder>
dBBDu183 (antibody, V domains shown, Human IgG1; light chain GLS3000 (kappa), before light chain maturation) VH: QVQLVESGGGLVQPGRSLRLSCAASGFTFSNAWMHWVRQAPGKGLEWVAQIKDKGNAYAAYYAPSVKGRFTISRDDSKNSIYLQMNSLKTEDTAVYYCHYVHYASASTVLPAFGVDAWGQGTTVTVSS VL: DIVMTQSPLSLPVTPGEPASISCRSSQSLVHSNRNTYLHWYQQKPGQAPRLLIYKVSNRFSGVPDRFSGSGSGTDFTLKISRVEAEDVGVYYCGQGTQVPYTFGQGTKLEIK

>  <Measured endpoint>
ELISA signal

>  <Measurement>
34000

$$$$

# get_value(readout='ELISA signal', item= dBBDu174 (antibody, V domains shown, Human IgG1; light chain GLS3000 (kappa)) VH: QVQLVESGGGLVQPGRSLRLSCAASGFTFSSAWMHWVRQAPGKGLEWVAQIKDRASAYNAYYAESVKGRFTISRDDSKNSIYLQMNSLKTEDTAVYYCRYVHYPSYVSFLPYYGVDAWGQGTTVTVSS VL: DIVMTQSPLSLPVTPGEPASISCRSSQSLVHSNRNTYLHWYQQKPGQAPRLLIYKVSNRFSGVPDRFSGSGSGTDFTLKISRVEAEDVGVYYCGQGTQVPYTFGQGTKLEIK )
4800

I have this binder here, DXDU01_3#094 (antibody, V domains shown, Human IgG1; light chain GLS3000 (kappa); also called dBBDu121) VH: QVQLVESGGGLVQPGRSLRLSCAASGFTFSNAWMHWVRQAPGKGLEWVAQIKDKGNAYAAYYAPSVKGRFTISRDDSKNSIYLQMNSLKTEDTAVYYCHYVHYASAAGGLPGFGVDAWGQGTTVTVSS VL: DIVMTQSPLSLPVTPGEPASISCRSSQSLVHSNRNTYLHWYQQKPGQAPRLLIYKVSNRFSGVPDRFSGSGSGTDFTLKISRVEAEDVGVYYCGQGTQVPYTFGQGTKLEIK , and I need its recorded ELISA signal.
3610
